Ref: patent USRE47689E1

I'd be grateful if you could share measured melting point for these entries.

Dear colleague, I am looking for the recorded melting point of the following molecule: CCN1CC[C@@H](Nc2ccc3cc(-c4cn5cc(C)nc(C)c5n4)c(=O)oc3c2)C1 [Compound 731]
209 to 215 °C

Dear colleague, I am looking for the recorded melting point of the following molecule: C[C@@H]1CN(c2ccc3cc(-c4cc5ccccc5s4)c(=O)oc3c2)CCN1 [Compound 409]
264 to 266 °C

Dear colleague, I am looking for the recorded melting point of the following molecule: Cc1ccn2cc(-c3cc4ccc(N5CCN(C)[C@@H](C)C5)cc4oc3=O)nc2c1 [Compound 379]
231 to 241 °C

Dear colleague, I am looking for the recorded melting point of the following molecule: Cc1cn2cc(-c3cc4ccc(OCCNC(C)(C)CO)cc4oc3=O)nc2c(C)n1 [Compound 955]
187 to 191 °C

Dear colleague, I am looking for the recorded melting point of the following molecule: Cc1cn2cc(-c3cc4ccc(OCCNCCO)cc4oc3=O)nc2c(C)n1 [Compound 959]
175 to 177 °C

Dear colleague, I am looking for the recorded melting point of the following molecule: Cc1ccc2nc(-c3cc4ccc(CN5CCC(O)CC5)cc4oc3=O)cn2c1 [Compound 252]
261 to 264 °C

Dear colleague, I am looking for the recorded melting point of the following molecule: Cc1cn2cc(-c3cc4ccc(N5CC[C@H]6CNC[C@H]65)cc4oc3=O)nc2c(C)n1 [Compound 687]
243 to 253 °C

Dear colleague, I am looking for the recorded melting point of the following molecule: Cc1cn2cc(-c3cc4ccc(N5CC[C@H](NC(=O)OC(C)(C)C)C5)cc4oc3=O)cc2c(C)n1 [Compound 724]
193 to 196 °C
